procedure.text: In vitro plasma protein binding (PPB)
Format: in vitro ADME
test.conditions: percentage of free/unbound compound
Would you kindly list DMPK-invitro-PPB (Mouse Unbound) [%] for each of these compounds?
One number for each entry, in %.

COc1nc2nc(C)nc(N[C@H](C)c3cccc(C(F)(F)[C@H](C)O)c3F)c2cc1C1(C#N)CC1 : 0.77

For the 3 compounds below, give their DMPK-invitro-PPB (Mouse Unbound) [%] values.
1. COc1nc2ncnc(N[C@H](C)c3cccc(C(F)(F)F)c3C)c2cc1C1CCS(=O)(=O)CC1
2. COc1nc2ncnc(N[C@H](C)c3cccc(C(F)(F)C(C)(C)O)c3)c2cc1N1CCN(C(C)C)CC1
3. COc1nc2ncnc(N[C@H](C)c3cccc(C(F)F)c3F)c2cc1N1CCN(C)CC1

[reply]
1. 2.93
2. 19.85
3. 14.53

---

Kindly supply the reported IC50 values for the records listed here.
target.system: SOS1 (Homo sapiens (Human), UniProt Q07889)
Sequence (Q07889 564-1049): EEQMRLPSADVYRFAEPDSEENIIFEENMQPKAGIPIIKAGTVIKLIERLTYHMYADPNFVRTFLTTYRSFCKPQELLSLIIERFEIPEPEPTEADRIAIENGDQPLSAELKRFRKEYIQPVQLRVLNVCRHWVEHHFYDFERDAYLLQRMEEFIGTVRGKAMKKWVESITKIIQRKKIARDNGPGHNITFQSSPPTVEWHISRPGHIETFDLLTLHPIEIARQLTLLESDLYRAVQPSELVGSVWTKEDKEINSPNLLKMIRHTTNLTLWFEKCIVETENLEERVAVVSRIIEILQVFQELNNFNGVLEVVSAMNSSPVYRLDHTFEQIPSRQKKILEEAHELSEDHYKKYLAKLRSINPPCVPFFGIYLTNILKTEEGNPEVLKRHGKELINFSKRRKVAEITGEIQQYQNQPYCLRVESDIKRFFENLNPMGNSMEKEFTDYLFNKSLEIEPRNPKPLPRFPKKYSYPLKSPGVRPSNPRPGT
procedure.text: Ras-SOS interaction assay (HTRF)
Format: biochemical
test.conditions: K-RasG13D utilized, read-out: IC50 inhibition of SOS

A selection of reference data follows.
COc1nc2ncnc(N[C@H](C)c3cccc(C(F)(F)CO)c3F)c2cc1N1CCN(C(C)C)CC1 [Compound 204] : < 100 nM
COc1nc2nc(C)nc(N[C@H](C)c3cccc(C(F)(F)C(C)(C)O)c3F)c2cc1C1CCS(=O)(=O)CC1 [Compound 321] : < 100 nM

Required: IC50, one value per compound below.
1. COc1nc2ncnc(N[C@H](C)c3cccc(C(F)(F)F)c3F)c2cc1C1CCN(C)CC1 [Compound 281]
2. COc1nc2ncnc(N[C@H](C)c3cccc(C(F)(F)F)c3F)c2cc1N1CCN(C(C)C)CC1 [Compound 159]
3. COc1nc2nc(C)nc(N[C@H](C)c3cccc(C(F)F)c3F)c2cc1C1CCN(C(C)C)CC1 [Compound 112]

[reply]
1: 100 to 1000 nM; 2: < 100 nM; 3: < 100 nM

// input: 2 compounds below; output: IC50 for each
1. Cc1nc(N[C@H](C)c2cccc(C(F)F)c2F)c2cc(C3(C#N)CC3)c(NC3COC3)nc2n1 [Compound 225]
2. CCN1CCC(c2cc3c(N[C@H](C)c4cccc(C(F)(F)F)c4F)ncnc3nc2OC)CC1 [Compound 199]

[reply]
100 to 1000 nM
< 100 nM

---

target.system: SOS1 (Homo sapiens (Human))
procedure.text: Ras-SOS interaction assay (HTRF)
Format: biochemical
test.conditions: K-RasG13D utilized, read-out: IC50 inhibition of SOS
For each entry below, report its IC50 value.

Answered examples (4):
Cc1nc(N[C@H](C)c2cccc3c2OC(C)(C)C3(F)F)c2cc(N3CCN(C(C)C)CC3)c(OCC3COC3)nc2n1 : 0.1 to 1 µM
COc1nc2ncnc(N[C@H](C)c3cccc(C(F)(F)F)c3C)c2cc1C1CCN(C)CC1 : 0.1 to 1 µM
COc1nc2nc(C)nc(N[C@H](C)c3cccc(C(F)F)c3F)c2cc1N1CCN(C2CCOCC2)CC1 : < 0.1 µM
COCCOc1nc2nc(C)nc(N[C@H](C)c3cccc(C(F)F)c3F)c2cc1N1CCN(C)CC1 : < 0.1 µM

// each compound listed below needs its IC50
1. Cc1nc(N[C@H](C)c2cccc(C(F)(F)C3CCN(C(C)C)CC3)c2F)c2cc(N3CCN(C(C)C)CC3)c(Cl)nc2n1
2. COc1nc2nc(C)nc(N[C@H](C)c3cccc(CC(F)F)c3F)c2cc1N1CCN(C)CC1
3. COc1nc2nc(C)nc(N[C@H](C)c3cccc(C(F)(F)CCC4CN(C(C)C)C4)c3F)c2cc1C1(C#N)CC1

[reply]
1: < 0.1 µM; 2: < 0.1 µM; 3: < 0.1 µM
